targetOrTestSystem: Chymase, from human skin (Homo sapiens)
Sequence (P23946 22-247): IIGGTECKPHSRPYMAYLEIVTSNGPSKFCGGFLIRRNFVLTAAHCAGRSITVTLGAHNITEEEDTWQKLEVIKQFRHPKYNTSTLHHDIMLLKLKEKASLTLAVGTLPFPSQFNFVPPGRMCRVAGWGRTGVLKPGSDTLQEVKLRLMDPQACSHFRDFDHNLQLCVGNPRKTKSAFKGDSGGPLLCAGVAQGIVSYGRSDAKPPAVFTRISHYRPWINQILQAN
Where a SMILES comes first, the peptide text is derived from it.

compound	targetOrTestSystem	Chymase at 100 μM %
CCCC[C@@H]1NC(=O)[C@@H]2CCCN2C(=O)[C@@H](C)NC(=O)[C@H](Cc2ccc(O)cc2)NC(=O)[C@@H]2CSSC[C@H](NC1=O)C(=O)N[C@@H]([C@@H](C)O)C(=O)N[C@@H](C)C(=O)N[C@@H](CO)C(=O)N[C@@H]([C@@H](C)CC)C(=O)N1CCC[C@H]1C(=O)N1CCC[C@H]1C(=O)N[C@@H](CCC(N)=O)C(=O)N2 [Ex. 130] (HELM PEPTIDE1{[Nle].C.T.A.S.I.P.P.Q.C.Y.[dA].P}$PEPTIDE1,PEPTIDE1,2:R3-10:R3|PEPTIDE1,PEPTIDE1,1:R1-13:R2$$$V2.0)	Chymase, from human skin (Homo sapiens)	<4000%

Where do the numbers come from? From patent US8658604B2.
